# TESTED ON: UniProt P41240
# ASSAY DETAILS: CSK human kinase assay (glass-fiber filter)
# Assay type: biochemical
# REPORTED CONDITIONS: test concentration of 10^−6M; read-out: C2 score (inhibition of CSK human)
Recorded measurements of inhibition at 1 µM, one per entry

- CHEMICAL STRUCTURE: "COc1ccc2cc1OCCCNC(=O)C(C)(C)NC(=O)Cc1ccc(Cl)cc1Nc1cc(ncn1)N2"
  METRIC: "inhibition at 1 µM"
  RECORDED MEASUREMENT: "30 to 60%"
- CHEMICAL STRUCTURE: "O=C1COc2cccc(c2)Nc2cc(ncn2)Nc2cccc(c2)CN2CCN1CC2"
  METRIC: "inhibition at 1 µM"
  RECORDED MEASUREMENT: "30 to 60%"

Summary line: COc1ccc2cc1OCCNC(=O)CNC(=O)Cc1ccc(Cl)cc1Nc1cc(ncn1)N2 , UniProt P41240, reported inhibition at 1 µM = 30 to 60%

Record COc1ccc2c(c1)OCCCCCCOc1ccc(Cl)cc1Nc1cc(ncn1)N2 / UniProt P41240, inhibition at 1 µM recorded as 10 to 30%

====

# TESTED ON: CSK (h) (Homo sapiens)
# Sequence (P41240 whole entry): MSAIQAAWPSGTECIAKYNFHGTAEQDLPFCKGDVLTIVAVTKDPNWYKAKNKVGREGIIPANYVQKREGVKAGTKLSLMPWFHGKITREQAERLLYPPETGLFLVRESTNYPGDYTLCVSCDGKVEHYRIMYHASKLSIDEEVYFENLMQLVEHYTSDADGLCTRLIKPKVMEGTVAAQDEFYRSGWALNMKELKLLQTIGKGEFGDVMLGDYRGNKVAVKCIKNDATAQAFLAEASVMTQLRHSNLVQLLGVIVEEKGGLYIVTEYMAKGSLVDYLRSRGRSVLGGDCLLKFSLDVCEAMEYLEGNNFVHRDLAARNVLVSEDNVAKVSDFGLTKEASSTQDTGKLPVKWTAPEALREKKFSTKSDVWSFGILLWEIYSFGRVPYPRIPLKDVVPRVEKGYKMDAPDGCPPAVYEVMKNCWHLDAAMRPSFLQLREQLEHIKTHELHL
# ASSAY DETAILS: CSK human kinase assay (glass-fiber filter)
# Assay type: biochemical
# REPORTED CONDITIONS: test concentration of 10^−6M
METRIC: C2 score (inhibition of CSK human)

Solved entries (count: 4):
- CHEMICAL STRUCTURE: "Cl.Cl.O=C1CNC(=O)Cc2ccc(Cl)cc2Nc2cc(ncn2)Nc2ccc(OCCCN3CCOCC3)c(c2)OCCN1"
  C2 score (inhibition of CSK human): "3 (Score 3=60-80% inhibition)"
- CHEMICAL STRUCTURE: "COc1ccc2cc1OCCCCCCOc1ccc(Br)cc1Nc1cc(ncn1)N2"
  C2 score (inhibition of CSK human): "1 (Score 1=10-30% inhibition)"
- CHEMICAL STRUCTURE: "COc1ccc2cc1OCCCCCCCCCOc1ccc(Cl)cc1Nc1cc(ncn1)N2"
  C2 score (inhibition of CSK human): "1 (Score 1=10-30% inhibition)"
- CHEMICAL STRUCTURE: "COc1ccc2cc1OCCCCCCCCOc1ccc(Br)cc1Nc1cc(ncn1)N2"
  C2 score (inhibition of CSK human): "1 (Score 1=10-30% inhibition)"

Moving on to the next compound.
Entry COc1ccc2cc1OCCCCCCCOc1ccc(Br)cc1Nc1cc(ncn1)N2 , CSK (h) (Homo sapiens) data, C2 score (inhibition of CSK human) value: 1 (Score 1=10-30% inhibition)

====

# TESTED ON: Fes (h) (Homo sapiens, UniProt P07332)
# Sequence (P07332 whole entry): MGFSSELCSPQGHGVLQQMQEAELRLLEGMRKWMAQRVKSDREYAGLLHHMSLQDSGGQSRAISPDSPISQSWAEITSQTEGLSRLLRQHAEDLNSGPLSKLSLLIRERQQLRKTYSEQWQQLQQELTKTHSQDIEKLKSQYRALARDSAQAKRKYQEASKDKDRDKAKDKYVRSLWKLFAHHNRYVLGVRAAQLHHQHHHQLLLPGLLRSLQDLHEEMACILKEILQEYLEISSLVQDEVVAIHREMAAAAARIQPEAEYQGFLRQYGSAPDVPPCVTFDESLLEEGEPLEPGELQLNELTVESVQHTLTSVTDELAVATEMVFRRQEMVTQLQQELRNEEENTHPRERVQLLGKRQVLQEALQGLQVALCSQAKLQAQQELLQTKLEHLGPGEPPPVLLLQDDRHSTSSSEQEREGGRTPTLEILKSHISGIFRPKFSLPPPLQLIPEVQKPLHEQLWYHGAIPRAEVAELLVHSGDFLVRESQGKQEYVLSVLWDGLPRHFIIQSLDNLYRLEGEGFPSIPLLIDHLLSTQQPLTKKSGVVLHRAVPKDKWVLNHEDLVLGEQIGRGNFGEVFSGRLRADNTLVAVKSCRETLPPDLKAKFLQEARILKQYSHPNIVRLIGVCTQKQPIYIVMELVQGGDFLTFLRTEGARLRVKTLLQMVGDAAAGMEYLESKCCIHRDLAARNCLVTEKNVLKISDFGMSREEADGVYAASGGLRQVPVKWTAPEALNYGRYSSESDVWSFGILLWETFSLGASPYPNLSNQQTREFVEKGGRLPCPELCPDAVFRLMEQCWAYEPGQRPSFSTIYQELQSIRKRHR
# ASSAY DETAILS: Fes human kinase assay (glass-fiber filter)
# Type: biochemical
# REPORTED CONDITIONS: test concentration of 10^−6M
Documented C4 score (inhibition of Fes human) across a set of molecules

- CHEMICAL STRUCTURE: "COc1ccc2cc1OCCCCCCCOc1ccc(Br)cc1Nc1cc(ncn1)N2"
  C4 score (inhibition of Fes human): "1 (Score 1=10-30% inhibition)"

Recorded result, COc1ccc2cc1OCCCNC(=O)[C@H](CC(C)C)NC(=O)Cc1ccc(Cl)cc1Nc1cc(ncn1)N2 , C4 score (inhibition of Fes human): 2 (Score 2=30-60% inhibition)

C4 score (inhibition of Fes human) in this record for COc1ccc2cc1OCCCCCCOc1ccc(Br)cc1Nc1cc(ncn1)N2 : 1 (Score 1=10-30% inhibition)

====

In this section, each of the compounds is paired with its reported inhibition at 1 µM.
# TESTED ON: CSK (h) (Homo sapiens)
# ASSAY DETAILS: CSK human kinase assay (glass-fiber filter)
# Assay type: biochemical
# REPORTED CONDITIONS: test concentration of 10^−6M; read-out: C2 score (inhibition of CSK human)

- CHEMICAL STRUCTURE: "O=C1NCCCCCOc2cccc(c2)Nc2ccnc(n2)Nc2cccc1c2"
  TESTED ON: "CSK (h) (Homo sapiens)"
  inhibition at 1 µM: "10 to 30%"
- CHEMICAL STRUCTURE: "O=C1CCCCNC(=O)c2cccc(c2)Nc2cc(ncn2)Nc2cccc(c2)CN1"
  TESTED ON: "CSK (h) (Homo sapiens)"
  inhibition at 1 µM: "60 to 80%"
- CHEMICAL STRUCTURE: "N#Cc1cnc2nc1Nc1cccc(c1)OCC(=O)NCCCCOc1cccc(c1)N2"
  TESTED ON: "CSK (h) (Homo sapiens)"
  inhibition at 1 µM: "10 to 30%"
- CHEMICAL STRUCTURE: "N#Cc1cnc2nc1Nc1cccc(c1)OCC(=O)NCCCOc1cccc(c1)N2"
  TESTED ON: "CSK (h) (Homo sapiens)"
  inhibition at 1 µM: "30 to 60%"
- CHEMICAL STRUCTURE: "N#Cc1cnc2nc1Nc1cccc(c1)C(=O)NCCOc1cccc(c1)N2"
  TESTED ON: "CSK (h) (Homo sapiens)"
  inhibition at 1 µM: "10 to 30%"

// sample CC1(C)NC(=O)Cc2ccc(Cl)cc2Nc2cc(ncn2)Nc2ccc(OCCCN3CCOCC3)c(c2)OCCNC1=O , its inhibition at 1 µM was 60 to 80%

response.value for N#Cc1cnc2nc1Nc1cccc(c1)OCCCNC(=O)COc1cccc(c1)N2 (field: inhibition at 1 µM) = 10 to 30%

get_value(item= O=C1NCCCCCCNC(=O)c2cccc(c2)Nc2cc(ncn2)Nc2cccc1c2 , readout=inhibition at 1 µM) returns 10 to 30%

====

// reported inhibition at 1 µM per item
# TESTED ON: Flt3 (h) (Homo sapiens)
# Sequence (P36888 27-993): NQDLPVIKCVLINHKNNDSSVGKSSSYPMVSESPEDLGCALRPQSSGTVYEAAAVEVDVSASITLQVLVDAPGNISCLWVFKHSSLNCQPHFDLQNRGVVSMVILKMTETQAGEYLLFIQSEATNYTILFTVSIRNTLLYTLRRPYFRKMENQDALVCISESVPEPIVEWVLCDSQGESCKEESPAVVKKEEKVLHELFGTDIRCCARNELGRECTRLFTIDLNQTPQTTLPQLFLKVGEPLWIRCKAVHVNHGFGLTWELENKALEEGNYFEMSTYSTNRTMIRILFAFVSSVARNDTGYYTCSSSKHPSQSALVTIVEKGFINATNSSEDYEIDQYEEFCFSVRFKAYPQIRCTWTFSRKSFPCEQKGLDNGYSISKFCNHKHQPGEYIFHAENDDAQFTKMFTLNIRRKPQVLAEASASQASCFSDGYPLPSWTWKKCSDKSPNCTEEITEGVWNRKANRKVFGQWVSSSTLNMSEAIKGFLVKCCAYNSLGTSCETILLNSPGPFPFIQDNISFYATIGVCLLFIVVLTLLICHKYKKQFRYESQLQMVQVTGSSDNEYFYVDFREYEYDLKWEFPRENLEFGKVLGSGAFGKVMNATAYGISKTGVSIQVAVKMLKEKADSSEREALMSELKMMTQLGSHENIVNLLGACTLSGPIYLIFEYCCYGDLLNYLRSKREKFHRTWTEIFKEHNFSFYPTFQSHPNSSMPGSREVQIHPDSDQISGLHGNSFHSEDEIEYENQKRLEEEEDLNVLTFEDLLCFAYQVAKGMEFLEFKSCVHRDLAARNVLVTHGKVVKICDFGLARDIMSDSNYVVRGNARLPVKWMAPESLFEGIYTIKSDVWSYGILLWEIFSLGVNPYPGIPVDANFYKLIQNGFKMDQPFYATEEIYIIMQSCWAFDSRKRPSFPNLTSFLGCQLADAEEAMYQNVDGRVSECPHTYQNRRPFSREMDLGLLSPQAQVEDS
# ASSAY DETAILS: Flt3 human kinase assay (glass-fiber filter)
# Assay type: biochemical
# REPORTED CONDITIONS: test concentration of 10^−6M; read-out: C6 score (inhibition of Flt3 human)

Known results for compounds:
- CHEMICAL STRUCTURE: "N#Cc1cnc2nc1Nc1cccc(c1)C(=O)NCC(=O)NCc1cccc(c1)N2"
  inhibition at 1 µM: "10 to 30%"
- CHEMICAL STRUCTURE: "N#Cc1cnc2nc1Nc1cccc(c1)C(=O)NCCOc1cccc(c1)N2"
  inhibition at 1 µM: "30 to 60%"
- CHEMICAL STRUCTURE: "N#Cc1cnc2nc1Nc1cccc(c1)OCCCCOc1cccc(c1)N2"
  inhibition at 1 µM: "> 80%"
- CHEMICAL STRUCTURE: "COc1ccc2c(c1)OCCCCCCOc1ccc(Cl)cc1Nc1cc(ncn1)N2"
  inhibition at 1 µM: "10 to 30%"
- CHEMICAL STRUCTURE: "O=C1CCCCCCNC(=O)c2cccc(c2)Nc2cc(ncn2)Nc2cccc(c2)CN1"
  inhibition at 1 µM: "30 to 60%"

The compound O=C1NCCCCOc2cccc(c2)Nc2ccnc(n2)Nc2cccc1c2 , when measured on Flt3 (h) (Homo sapiens), yielded inhibition at 1 µM of 30 to 60%

Known value: Flt3 (h) (Homo sapiens) inhibition at 1 µM of the compound O=C1COc2cccc(c2)Nc2nccc(n2)Nc2cccc(c2)OCCCN1 equals > 80%

Sample O=C1COc2cccc(c2)Nc2cc(ncn2)Nc2cccc(c2)CN2CCN1CC2 , system: Flt3 (h) (Homo sapiens). Its inhibition at 1 µM is 30 to 60%

For the compound O=C1NCCCCCOc2cccc(c2)Nc2ccnc(n2)Nc2cccc1c2 , the measured inhibition at 1 µM on Flt3 (h) (Homo sapiens) was 30 to 60%

Tested on Flt3 (h) (Homo sapiens): N#Cc1cnc2nc1Nc1cccc(c1)OCCCNC(=O)COc1cccc(c1)N2 . Observed inhibition at 1 µM: 60 to 80%

Readout inhibition at 1 µM for N#Cc1cnc2nc1Nc1cccc(c1)OCC(=O)NCCCCOc1cccc(c1)N2 , test system Flt3 (h) (Homo sapiens), was 60 to 80%

The value of inhibition at 1 µM recorded for O=C1COc2cccc(c2)Nc2nccc(n2)Nc2cccc(c2)OCCCCN1 when tested on Flt3 (h) (Homo sapiens) reads > 80%

O=C1COc2cccc(c2)Nc2nccc(n2)Nc2cccc(c2)CN1 tested on Flt3 (h) (Homo sapiens) gave inhibition at 1 µM: 30 to 60%

====

# TESTED ON: EGFR-kinase domain (Homo sapiens)
# Construct: 0.5 μg EGFR-kinase domain/well
# Sequence (P00533 712-979 limits assumed): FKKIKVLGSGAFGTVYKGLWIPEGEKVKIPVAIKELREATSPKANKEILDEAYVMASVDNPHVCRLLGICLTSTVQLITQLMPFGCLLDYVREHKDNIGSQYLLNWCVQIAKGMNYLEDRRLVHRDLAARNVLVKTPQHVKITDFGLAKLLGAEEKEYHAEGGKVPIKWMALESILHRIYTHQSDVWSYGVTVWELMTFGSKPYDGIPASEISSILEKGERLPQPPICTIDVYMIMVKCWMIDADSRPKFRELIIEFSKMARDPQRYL
# ASSAY DETAILS: In vitro inhibition of EGFR (Flash Plate assay)
# Type: biochemical
# REPORTED CONDITIONS: full dose response 1.10^−6M to 1.10^−10M, read-out: C12 EGFR flash Score
METRIC: IC50

- COMPOUND: "COc1ccc2cc1OCCNC(=O)CCN1CCC(CC1)N(C)Cc1cc(ccc1Cl)Nc1cc(ncn1)N2"
  RECORDED MEASUREMENT: "1 to 10 µM"

IC50 in this record for CN(C)CCCCC1NC(=O)CN(C)Cc2cccc(c2)Nc2cc(ncn2)Nc2cccc(c2)CN2CCN(CC2)C1=O (stereo not shown) : < 1 µM

Lab note: measured IC50 of CN1CC(=O)NC(CCc2ccccc2)C(=O)NCc2cccc(c2)Nc2cc(ncn2)Nc2cccc(c2)C1 (stereo not shown) was < 1 µM

The reported IC50 of the compound COc1ccc2cc1OCCNC(=O)C1CN(CCC1O)Cc1cc(ccc1Cl)Nc1cc(ncn1)N2 (stereo not shown) was 1 to 10 µM
